- Measurement target: T1, colicin E9 DNase (ColE9) (E. coli, UniProt P09883 449-582)
- T1 sequence: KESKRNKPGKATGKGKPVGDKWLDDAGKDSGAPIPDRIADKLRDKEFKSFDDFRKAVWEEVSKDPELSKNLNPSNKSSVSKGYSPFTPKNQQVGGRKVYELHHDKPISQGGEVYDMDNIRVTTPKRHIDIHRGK
- Assay name: not stated (running text of Example 4)
Observed property: Kd (nM)

Binder: immunity protein 7 (Im7), wild type (other, also called wild-type Im7) MELKNSISDYTEAEFVQLLKEIEKENVAATDDVLDVLLEHFVKITEHPDGTDLIYYPSDNRDDSPEGIVKEIKEWRAANGKPGFKQG
Observed property: Kd
Unit abbrev: nM
Recorded number: 56
